The measured values listed here are drawn from patent US6613531B2.

- target: σ^70 (Escherichia coli, UniProt P00579)
- test_context: β′1-319 fragment, normalized to amount of fragment
- Sequence (P00579 whole entry, the tested form may be a part): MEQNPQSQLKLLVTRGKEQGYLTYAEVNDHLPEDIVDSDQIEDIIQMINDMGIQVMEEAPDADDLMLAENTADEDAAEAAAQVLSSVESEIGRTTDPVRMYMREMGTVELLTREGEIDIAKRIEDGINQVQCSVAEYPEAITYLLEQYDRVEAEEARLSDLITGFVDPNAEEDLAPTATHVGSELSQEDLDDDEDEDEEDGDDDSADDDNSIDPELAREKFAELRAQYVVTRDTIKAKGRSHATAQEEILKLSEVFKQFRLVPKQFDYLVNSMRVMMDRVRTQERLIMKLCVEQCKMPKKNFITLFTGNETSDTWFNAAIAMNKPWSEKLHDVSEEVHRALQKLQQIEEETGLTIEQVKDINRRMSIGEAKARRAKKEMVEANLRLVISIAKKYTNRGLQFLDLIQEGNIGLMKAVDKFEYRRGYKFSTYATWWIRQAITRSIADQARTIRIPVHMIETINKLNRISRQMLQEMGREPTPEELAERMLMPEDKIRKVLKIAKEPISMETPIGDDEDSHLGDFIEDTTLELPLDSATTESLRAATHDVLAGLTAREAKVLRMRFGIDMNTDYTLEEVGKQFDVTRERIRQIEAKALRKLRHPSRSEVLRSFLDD
recorded_metric: ability to bind σ^70 compared to wt β′1-319 fragment

Worked set:
substance	observed
N266D (FATSDLDDLYRRVINRNNRLKRLLDLAAPDIIVRNEKRMLQEAVDALLDN)	no effects on binding
R297S (FATSDLNDLYRRVINRNNRLKRLLDLAAPDIIVRNEKSMLQEAVDALLDN)	greatly reduced
R293Q (FATSDLNDLYRRVINRNNRLKRLLDLAAPDIIVQNEKRMLQEAVDALLDN)	greatly reduced
A302D (FATSDLNDLYRRVINRNNRLKRLLDLAAPDIIVRNEKRMLQEDVDALLDN)	greatly reduced
K280E (FATSDLNDLYRRVINRNNRLERLLDLAAPDIIVRNEKRMLQEAVDALLDN)	no effects on binding

Problem: Specify ability to bind σ^70 compared to wt β′1-319 fragment for E295K (FATSDLNDLYRRVINRNNRLKRLLDLAAPDIIVRNKKRMLQEAVDALLDN) and stop.
Solution: greatly reduced

Problem: Assign ability to bind σ^70 compared to wt β′1-319 fragment to the following record: R275Q (FATSDLNDLYRRVINQNNRLKRLLDLAAPDIIVRNEKRMLQEAVDALLDN)
Solution: greatly reduced

Problem: Using known records, supply ability to bind σ^70 compared to wt β′1-319 fragment for Y269A (FATSDLNDLARRVINRNNRLKRLLDLAAPDIIVRNEKRMLQEAVDALLDN)
Solution: no effects on binding

###

- target: σ^70 (Escherichia coli, UniProt P00579)
- test_context: log and stationary phase samples
- Description: One L flasks containing 200 ml of LB with ampicillin (100 μg/ml) and IPTG (0.15 mM) were inoculated with 200 μl from an overnight culture of cells containing plasmids pTA561, 577, 600-609. […] The secondary antibodies were horseradish peroxidase-labeled goat antimouse IgG antibodies and the signal was generated using the ECL+ substrate system (Amersham) and detected using the STORM FluoroImager and quantitated with IMAGEQUANT software (Molecular Dynamics). […]
- Sequence (P00579 whole entry, the tested form may be a part): as the sequence (P00579 whole entry, the tested form may be a part) above
- Sequence (P0A8T7 whole entry, further chain, the tested form may be a part): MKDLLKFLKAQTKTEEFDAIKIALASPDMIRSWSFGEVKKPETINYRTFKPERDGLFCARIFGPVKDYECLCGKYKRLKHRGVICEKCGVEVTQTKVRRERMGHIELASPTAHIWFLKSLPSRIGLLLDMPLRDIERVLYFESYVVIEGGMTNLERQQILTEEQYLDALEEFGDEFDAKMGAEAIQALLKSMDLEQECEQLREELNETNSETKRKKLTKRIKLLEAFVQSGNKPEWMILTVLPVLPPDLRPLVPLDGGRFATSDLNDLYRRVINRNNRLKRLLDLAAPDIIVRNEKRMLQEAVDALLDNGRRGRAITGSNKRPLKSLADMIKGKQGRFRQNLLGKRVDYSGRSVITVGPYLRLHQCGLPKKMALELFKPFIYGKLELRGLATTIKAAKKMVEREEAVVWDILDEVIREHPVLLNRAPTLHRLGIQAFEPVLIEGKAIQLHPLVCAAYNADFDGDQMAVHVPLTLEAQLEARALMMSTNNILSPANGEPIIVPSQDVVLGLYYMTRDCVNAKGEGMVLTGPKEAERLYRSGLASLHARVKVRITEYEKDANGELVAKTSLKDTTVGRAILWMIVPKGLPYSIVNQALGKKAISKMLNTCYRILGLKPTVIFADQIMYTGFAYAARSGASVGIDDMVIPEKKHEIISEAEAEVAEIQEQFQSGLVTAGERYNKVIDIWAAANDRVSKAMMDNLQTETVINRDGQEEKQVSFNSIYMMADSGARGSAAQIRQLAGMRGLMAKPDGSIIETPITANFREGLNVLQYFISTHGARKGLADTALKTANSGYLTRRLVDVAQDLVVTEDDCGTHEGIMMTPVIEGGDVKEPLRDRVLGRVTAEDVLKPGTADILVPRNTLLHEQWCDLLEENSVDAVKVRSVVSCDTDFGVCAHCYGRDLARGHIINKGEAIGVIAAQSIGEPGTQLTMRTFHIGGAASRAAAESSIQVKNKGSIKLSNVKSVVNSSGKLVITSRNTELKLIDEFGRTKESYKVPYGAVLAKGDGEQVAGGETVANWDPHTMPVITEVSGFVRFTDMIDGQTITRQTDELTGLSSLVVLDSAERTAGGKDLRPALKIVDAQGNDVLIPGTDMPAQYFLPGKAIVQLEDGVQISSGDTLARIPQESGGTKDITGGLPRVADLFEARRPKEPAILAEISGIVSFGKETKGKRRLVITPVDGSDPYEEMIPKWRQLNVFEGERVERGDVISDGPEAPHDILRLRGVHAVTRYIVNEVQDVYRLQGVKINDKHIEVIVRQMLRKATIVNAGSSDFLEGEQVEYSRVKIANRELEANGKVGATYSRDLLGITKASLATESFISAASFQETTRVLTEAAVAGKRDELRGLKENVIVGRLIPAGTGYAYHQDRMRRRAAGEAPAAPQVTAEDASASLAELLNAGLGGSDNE
- Sequence (P0A8V2 whole entry, further chain, the tested form may be a part): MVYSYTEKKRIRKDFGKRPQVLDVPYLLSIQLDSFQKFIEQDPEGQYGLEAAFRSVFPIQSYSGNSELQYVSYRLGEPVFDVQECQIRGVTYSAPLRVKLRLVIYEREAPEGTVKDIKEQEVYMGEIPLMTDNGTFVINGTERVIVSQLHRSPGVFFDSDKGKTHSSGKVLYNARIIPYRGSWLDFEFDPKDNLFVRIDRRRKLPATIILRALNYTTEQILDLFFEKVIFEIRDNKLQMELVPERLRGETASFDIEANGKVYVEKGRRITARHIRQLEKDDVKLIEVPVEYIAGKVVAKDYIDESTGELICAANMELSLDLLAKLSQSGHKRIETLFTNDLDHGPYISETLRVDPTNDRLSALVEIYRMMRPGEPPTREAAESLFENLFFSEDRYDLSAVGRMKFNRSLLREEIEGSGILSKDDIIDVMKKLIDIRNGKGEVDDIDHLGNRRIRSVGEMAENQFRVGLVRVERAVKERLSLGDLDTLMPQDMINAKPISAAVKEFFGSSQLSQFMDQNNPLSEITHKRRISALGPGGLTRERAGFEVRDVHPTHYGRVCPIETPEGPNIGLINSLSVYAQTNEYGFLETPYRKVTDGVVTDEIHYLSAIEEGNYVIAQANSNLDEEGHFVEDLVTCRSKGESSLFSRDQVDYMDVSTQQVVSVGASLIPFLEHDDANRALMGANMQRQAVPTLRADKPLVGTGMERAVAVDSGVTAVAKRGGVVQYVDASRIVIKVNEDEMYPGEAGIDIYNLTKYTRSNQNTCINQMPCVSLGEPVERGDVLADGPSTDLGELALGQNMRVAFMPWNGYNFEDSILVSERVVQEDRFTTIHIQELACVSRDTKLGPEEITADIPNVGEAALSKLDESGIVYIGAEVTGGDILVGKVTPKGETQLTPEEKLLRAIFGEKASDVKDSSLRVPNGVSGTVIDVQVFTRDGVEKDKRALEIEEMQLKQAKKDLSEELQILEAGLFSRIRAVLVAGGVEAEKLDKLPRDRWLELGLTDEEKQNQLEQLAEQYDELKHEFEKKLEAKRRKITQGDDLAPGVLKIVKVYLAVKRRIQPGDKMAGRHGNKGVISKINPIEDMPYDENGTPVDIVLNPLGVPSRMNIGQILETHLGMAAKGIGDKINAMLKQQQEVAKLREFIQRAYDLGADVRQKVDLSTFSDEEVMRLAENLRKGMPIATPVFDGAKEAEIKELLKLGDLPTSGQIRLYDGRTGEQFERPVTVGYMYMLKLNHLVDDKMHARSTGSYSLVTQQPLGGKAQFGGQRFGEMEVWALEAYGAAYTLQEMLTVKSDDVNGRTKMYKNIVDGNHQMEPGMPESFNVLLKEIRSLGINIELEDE
- Sequence (P0A7Z4 whole entry, further chain, the tested form may be a part): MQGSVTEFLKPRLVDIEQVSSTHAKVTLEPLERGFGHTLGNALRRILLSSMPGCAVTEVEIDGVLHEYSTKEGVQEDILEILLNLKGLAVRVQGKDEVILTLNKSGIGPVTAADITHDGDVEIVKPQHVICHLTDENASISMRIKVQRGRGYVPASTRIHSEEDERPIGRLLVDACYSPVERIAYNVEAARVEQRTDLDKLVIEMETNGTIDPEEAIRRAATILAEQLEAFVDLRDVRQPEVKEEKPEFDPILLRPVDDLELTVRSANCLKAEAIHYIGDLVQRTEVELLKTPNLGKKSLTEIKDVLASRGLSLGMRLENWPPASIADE
recorded_metric: Eσ^70 formation / binding σ^70

Here is how some substances turned out for Eσ^70 formation / binding σ^70.
substance	target	Eσ^70 formation / binding σ^70
E295K (FATSDLNDLYRRVINRNNRLKRLLDLAAPDIIVRNKKRMLQEAVDALLDN)	σ^70 (Escherichia coli, UniProt P00579)	defects in binding σ^70
R275Q (FATSDLNDLYRRVINQNNRLKRLLDLAAPDIIVRNEKRMLQEAVDALLDN)	σ^70 (Escherichia coli, UniProt P00579)	defects in binding σ^70
N309D (FATSDLNDLYRRVINRNNRLKRLLDLAAPDIIVRNEKRMLQEAVDALLDD)	σ^70 (Escherichia coli, UniProt P00579)	no detectable affect
K280E (FATSDLNDLYRRVINRNNRLERLLDLAAPDIIVRNEKRMLQEAVDALLDN)	σ^70 (Escherichia coli, UniProt P00579)	no detectable affect
A302D (FATSDLNDLYRRVINRNNRLKRLLDLAAPDIIVRNEKRMLQEDVDALLDN)	σ^70 (Escherichia coli, UniProt P00579)	defects in binding σ^70
R293Q (FATSDLNDLYRRVINRNNRLKRLLDLAAPDIIVQNEKRMLQEAVDALLDN)	σ^70 (Escherichia coli, UniProt P00579)	no detectable affect

Now for the substance whose Eσ^70 formation / binding σ^70 we want.
Problem: Given Y269A (FATSDLNDLARRVINRNNRLKRLLDLAAPDIIVRNEKRMLQEAVDALLDN) , respond with its Eσ^70 formation / binding σ^70.
Solution: no detectable affect
